So I've got a bunch of molecules here, and I need their IC50 values.
- target desc: human dihydroorotate dehydrogenase (HsDHODH) (Homo sapiens, UniProt Q02127)
- Construct: made in house
- Sequence (Q02127 whole entry): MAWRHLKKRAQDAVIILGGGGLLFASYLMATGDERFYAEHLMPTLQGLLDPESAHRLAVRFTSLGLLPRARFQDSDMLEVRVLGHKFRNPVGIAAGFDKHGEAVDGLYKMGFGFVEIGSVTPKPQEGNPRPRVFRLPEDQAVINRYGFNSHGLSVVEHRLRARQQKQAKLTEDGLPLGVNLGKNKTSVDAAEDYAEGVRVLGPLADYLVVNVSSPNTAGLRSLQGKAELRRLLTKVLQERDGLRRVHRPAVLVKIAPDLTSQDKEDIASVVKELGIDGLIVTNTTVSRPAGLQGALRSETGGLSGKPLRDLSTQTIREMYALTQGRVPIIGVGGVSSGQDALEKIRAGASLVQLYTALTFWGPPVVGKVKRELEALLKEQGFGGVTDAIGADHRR
- procedure text: Inhibition of recombinant human DHODH enzyme activity
- Format: biochemical
- test settings: recombinant human DHODH; purified enzyme fixed at 10 nM; read-out: IC50 (nM), inhibition of human DHODH
Only the number, expressed in nM, is required.

Inquiry: Entry CCCCC/C(C)=C/Cc1c(O)c(Cl)c(C)c(C=O)c1O : reported IC50 = ?
Reply text: 71.4

Inquiry: Entry C/C(=C\CC/C=C/Cc1c(O)c(Cl)c(C)c(C=O)c1O)COC(=O)C(C)(C)C : reported IC50 = ?
Reply text: 349
